# System: MRSA ATCC 700789 VRSA
# Experimental details: MIC, broth microdilution
# Format: cell-based, Staphylococcus aureus
# Run parameters: MRSA ATCC 700789 VRSA
Reported endpoint: MIC

[[record]]
molecule_smiles = "N[C@H]1C(=O)N[C@@H]2Cc3ccc(c(Cl)c3)Oc3cc4cc(c3O)Oc3ccc(cc3Cl)[C@@H](O[C@@H]3O[C@H](CO)[C@@H](O)[C@H](O)[C@H]3NC(=O)CCCCCCCCCCCO)[C@@H]3NC(=O)[C@H](NC(=O)[C@@H]4NC(=O)[C@@H](NC2=O)c2cc(O)cc(c2)Oc2cc1ccc2O)c1ccc(O)c(c1)-c1c(O)cc(O)cc1[C@@H](C(=O)O)NC3=O"
reported_endpoint = "MIC"
value_observed = "0.25 µg/mL"


Where these numbers come from: patent US11739122B2
